This section presents binders with their documented Max MFI values.
Molecular target: T1, human CDH6 on tumor cells (OVCAR3 cells, PA-1 cells) (human, UniProt P55285 54-790)
T1 sequence: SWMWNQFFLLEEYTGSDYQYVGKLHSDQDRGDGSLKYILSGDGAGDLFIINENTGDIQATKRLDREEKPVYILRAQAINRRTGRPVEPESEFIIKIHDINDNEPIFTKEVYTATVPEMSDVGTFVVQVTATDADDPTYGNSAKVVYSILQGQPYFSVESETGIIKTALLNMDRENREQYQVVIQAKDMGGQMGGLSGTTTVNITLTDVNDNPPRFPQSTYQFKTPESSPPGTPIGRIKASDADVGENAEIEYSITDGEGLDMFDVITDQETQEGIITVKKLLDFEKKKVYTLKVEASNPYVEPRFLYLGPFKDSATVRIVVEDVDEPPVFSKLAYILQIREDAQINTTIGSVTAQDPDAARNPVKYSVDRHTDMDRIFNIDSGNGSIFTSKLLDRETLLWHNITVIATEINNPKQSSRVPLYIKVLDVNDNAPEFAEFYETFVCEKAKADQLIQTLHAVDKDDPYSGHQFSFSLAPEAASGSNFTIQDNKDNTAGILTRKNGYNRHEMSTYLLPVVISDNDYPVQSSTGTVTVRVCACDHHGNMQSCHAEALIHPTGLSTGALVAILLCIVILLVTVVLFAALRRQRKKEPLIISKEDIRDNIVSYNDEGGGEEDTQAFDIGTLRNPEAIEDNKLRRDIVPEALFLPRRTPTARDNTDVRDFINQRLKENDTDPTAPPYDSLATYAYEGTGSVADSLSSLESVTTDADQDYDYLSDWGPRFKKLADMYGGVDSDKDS
Assay: FACS, PA-1 cells
quantity_measured: Max MFI (MFI)

1) CHI-CDH6-14 (antibody, human IgG1, kappa, V domains shown, also called CHI-hCDH6-14; CH1-CDH6-14) VH: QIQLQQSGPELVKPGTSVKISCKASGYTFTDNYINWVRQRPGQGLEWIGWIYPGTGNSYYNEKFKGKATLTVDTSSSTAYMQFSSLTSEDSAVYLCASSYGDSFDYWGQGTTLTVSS VL: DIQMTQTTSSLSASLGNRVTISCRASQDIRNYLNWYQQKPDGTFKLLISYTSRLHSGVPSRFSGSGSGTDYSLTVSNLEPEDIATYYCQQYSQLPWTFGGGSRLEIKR	5410
2) CHI-CDH6-12 (antibody, human IgG1, kappa, V domains shown, also called CH1-CDH6-12; chimeric antibody of murine CDH6-12) VH: EVNLVESGGGLVQPGDSLTLSCSASGFTFTDYYMSWVRQFPGKALEWLALIRNKANSYTTEYSASVKGRFTISRDNSQSILYLQMNALRAEDSATYYCARDSYYSHDGFAYWGQGTLVTVSA VL: DIVLTQSPASLAVSLGQRATISCRASKSVSTSSYTYMHWYQQKPGQPPKLLIKFASYLESGVPARFSGSGSGTDFTLNIHPVEEEDAATYYCQHSREFPFTFGTGTKLEIKR	3150
3) CHI-CDH6-10 (antibody, human IgG1, kappa, V domains shown, also called chimeric antibody of murine CDH6-10) VH: QVQLQQPGAELVKPGTSVKMSCKASGYTFTSDWIAWVKQRPGQGLEWIGDIYPGSGRTHNNEKFNFKATLTVDTSSNTAYMQLSSLTSEDSAVYFCARPMLGRFDYWGQGTTLTVSS VL: DIVLTQSPASLAVSLGQRATISCRASESVSIHGTHLMHWYQQKPGQPPKLLIYAASNLESGVPARFSGSGSETDFTLNIHPVEEEDAATYFCQQSFEDPFTFGSGTKLEIKR	4070
4) CHI-CDH6-4 (antibody, human IgG1, kappa, V domains shown, also called CH1-CDH6-4; chimeric antibody of murine CDH6-4) VH: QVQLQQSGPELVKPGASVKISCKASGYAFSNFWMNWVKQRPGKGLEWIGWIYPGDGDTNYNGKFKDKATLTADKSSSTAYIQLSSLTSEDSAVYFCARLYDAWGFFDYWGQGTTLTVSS VL: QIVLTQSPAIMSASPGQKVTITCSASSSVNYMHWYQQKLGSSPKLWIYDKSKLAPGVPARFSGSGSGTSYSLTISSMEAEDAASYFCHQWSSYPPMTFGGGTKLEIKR	3990
5) NOV0712 (antibody, human IgG1, kappa, V domains shown, Positive control, variable regions from WO2018212136A1; also called positive control anti-human CDH6 antibody) VH: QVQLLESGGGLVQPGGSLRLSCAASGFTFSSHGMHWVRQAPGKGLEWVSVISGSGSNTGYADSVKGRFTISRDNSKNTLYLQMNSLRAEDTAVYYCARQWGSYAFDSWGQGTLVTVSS VL: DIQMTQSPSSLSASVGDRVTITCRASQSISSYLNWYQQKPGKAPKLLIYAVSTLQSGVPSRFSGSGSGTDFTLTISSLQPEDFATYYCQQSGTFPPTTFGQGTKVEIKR	3600
6) CHI-CDH6-9 (antibody, human IgG1, kappa, V domains shown, also called chimeric antibody of murine CDH6-9) VH: QVQLQQPGAELVKPGASVKLSCKASGYTFTGYWMHWVRQRPGQGLEWIGEINPNNGGTNCNEQFKNKATLTVDKSSSTAYMQLSSLTSEDSAVFYCTISFGNYLFFDVWGAGTTVTVSS VL: DIQMTQSPASLAASVGETITITCQASENIYFSLAWYQQKQGKSPQLLIYNANTLEDGVPSRFVGSGSGTQYSMKINSIQPEDTATYFCDQTYDFPWTFGGGTKLEIKR	4400
7) CHI-CDH6-3 (antibody, human IgG1, kappa, V domains shown, also called CH1-CDH6-3; chimeric antibody of murine CDH6-3) VH: QVQLQQPGAELVKPGASVKLSCKASGYTFTSYWIHWVKQRPGQGLEWIGEINPSNGVTNCNENFKSKATLTVDKSSSTAYMQLSSLTSEDSAVYYCTIPNLLWWYFDVWGAGTTVTVSS VL: DIQMTQSPASLSVSVGETVTITCRASENIYSNLAWYQQKQGKSPQLLVYEATNLADGVPSRFSGSGSGTQYSLKINSLQSEDFGSYYCQHFWGTLWTFGGGTKLEIKR	3870
8) CHI-CDH6-6 (antibody, human IgG1, kappa, V domains shown, also called CHI-hCDH6-6; chimeric antibody of murine CDH6-6) VH: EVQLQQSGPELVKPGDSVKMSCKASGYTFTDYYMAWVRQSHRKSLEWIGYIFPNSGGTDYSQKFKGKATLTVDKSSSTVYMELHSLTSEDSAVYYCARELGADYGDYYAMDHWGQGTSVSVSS VL: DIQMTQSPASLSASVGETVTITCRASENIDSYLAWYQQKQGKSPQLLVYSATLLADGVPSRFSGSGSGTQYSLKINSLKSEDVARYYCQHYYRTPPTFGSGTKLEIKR	4630
9) CHI-CDH6-5 (antibody, human IgG1, kappa, V domains shown, also called CH1-CDH6-5; chimeric antibody of murine CDH6-5) VH: QVQLQQSGAELVRPGTSVKMSCKAAEYTFTNYWIGWVKQRPGHGLEWIGDLYPGGDHANYNEKFEGKATLTADTSSSTAYMQLSSLTSEDSAIYYCARGMLTTGFDSWGQGTTLTVSS VL: DIVMSQSPSSLAVSAGEKVTMSCKSSQSLFNSRTRKNYLAWYQQKPGQSPKLLIYWASTRESGVPDRFTGSGSGTDFTLTISSVQAEDLAVYYCKQSYYLRTFGGGTKLEIKR	4560
10) CHI-CDH6-1 (antibody, human IgG1, kappa, V domains shown, also called CHI-hCDH6-1; CH1-CDH6-1) VH: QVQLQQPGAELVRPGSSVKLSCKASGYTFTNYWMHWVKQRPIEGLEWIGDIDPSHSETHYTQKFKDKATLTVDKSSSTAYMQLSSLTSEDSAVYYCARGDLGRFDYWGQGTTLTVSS VL: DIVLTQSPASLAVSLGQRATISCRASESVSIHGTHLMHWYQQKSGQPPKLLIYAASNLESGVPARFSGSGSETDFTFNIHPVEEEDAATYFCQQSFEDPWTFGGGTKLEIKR	4390
